Quick record of pIC50 values for Thymidylate synthase (TS) (Homo sapiens).
# pIC50 is unitless: minus log10 of the molar concentration; print number only

Request: // lookup pIC50 for Nc1nc2[nH]cc(CCc3ccc(C(=O)N[C@@H](CCC(=O)O)C(=O)O)cc3)c2c(=O)[nH]1 [Pemetrexed, reference compound]
Result: 5.14

Request: // lookup pIC50 for COc1ccccc1-n1cc(CSc2nnc(COc3cc(C)ccc3C(C)C)o2)nn1 [Compound 7]
Result: 5.45

Request: // lookup pIC50 for Cc1ccc(C(C)C)c(OCc2nnc(SCc3cn(-c4cccc(Cl)c4)nn3)o2)c1 [Compound 11]
Result: 5.37

Request: // lookup pIC50 for Cc1ccc(C(C)C)c(OCc2nnc(SCc3cn(-c4ccccc4Cl)nn3)o2)c1 [Compound 10]
Result: 5.66

Request: // lookup pIC50 for Cc1ccc(C(C)C)c(OCc2nnc(SCc3cn(-c4ccccc4O)nn3)o2)c1 [Compound 9]
Result: 5.71

---

MEASURED_QUANTITY: melting point

Request: // lookup melting point for Cc1ccc(C(C)C)c(OCc2nnc(SCc3cn(-c4cccc(Cl)c4)nn3)o2)c1 [Compound 11]
Result: 92 to 94 °C

Request: // lookup melting point for Cc1ccc(C(C)C)c(OCc2nnc(SCc3cn(-c4ccc(F)cc4)nn3)o2)c1 [Compound 15]
Result: 118 to 120 °C

Request: // lookup melting point for Cc1ccc(C(C)C)c(OCc2nnc(SCc3cn(-c4ccccc4Cl)nn3)o2)c1 [Compound 10]
Result: 90 to 92 °C

Request: // lookup melting point for Cc1ccc(C(C)C)c(OCc2nnc(SCc3cn(-c4ccccc4)nn3)o2)c1 [Compound 6]
Result: 88 to 90 °C

---

MEASURED_QUANTITY: melting point

Request: // lookup melting point for Cc1ccc(C(C)C)c(OCc2nnc(S(=O)(=O)Cc3cn(-c4cccc(Br)c4)nn3)o2)c1 [Compound 18]
Result: 98 to 100 °C

Request: // lookup melting point for Cc1ccc(C(C)C)c(OCc2nnc(SCc3cn(-c4cccc(C(=O)O)c4)nn3)o2)c1 [Compound 8]
Result: 166 to 168 °C

Request: // lookup melting point for Cc1ccc(C(C)C)c(OCc2nnc(SCc3cn(-c4ccc(F)cc4F)nn3)o2)c1 [Compound 16]
Result: 130 to 132 °C

Request: // lookup melting point for Cc1ccc(C(C)C)c(OCc2nnc(SCc3cn(-c4ccc(Br)cc4)nn3)o2)c1 [Compound 13]
Result: 114 to 116 °C

Request: // lookup melting point for Cc1ccc(C(C)C)c(OCc2nnc(SCc3cn(-c4ccccc4O)nn3)o2)c1 [Compound 9]
Result: 86 to 88 °C

Request: // lookup melting point for Cc1ccc(C(C)C)c(OCc2nnc(SCc3cn(-c4cccc(Br)c4)nn3)o2)c1 [Compound 14]
Result: 72 to 74 °C

Request: // lookup melting point for COc1ccccc1-n1cc(CSc2nnc(COc3cc(C)ccc3C(C)C)o2)nn1 [Compound 7]
Result: 81 to 83 °C

Request: // lookup melting point for Cc1ccc(C(C)C)c(OCc2nnc(SCc3cn(-c4ccc(Cl)cc4Cl)nn3)o2)c1 [Compound 12]
Result: 84 to 86 °C

Request: // lookup melting point for Cc1ccc(C(C)C)c(OCc2nnc(SCc3cn(C(=O)Nc4ccccc4C)nn3)o2)c1 [Compound 17]
Result: 124 to 126 °C

Request: // lookup melting point for C#CCSc1nnc(COc2cc(C)ccc2C(C)C)o1 [Compound 5]
Result: 58 to 60 °C
